These data points were gathered from paper PMC8285431.

Hi there, I'd appreciate the recorded MHC (minimal hemolytic concentration) for every entry that follows.
- Tested on: human red blood cells
- EXPERIMENTAL_PARAMETERS: 10 mM phosphate buffer saline pH 7.4, 25 °C, 4 h, visual inspection, 0.1% Triton X-100 positive control
Ends that are not written are not given here.

| SUBSTANCE | MHC (minimal hemolytic concentration) |
| --- | --- |
| LRKARRLVKKLA-NH2 [GP12] | >2000 µg/mL |
| FLHSIGKAIGRLLR-NH2 [GP3] | 250 µg/mL |
| KFFRKLKKLVKK-NH2 [GN5] | >2000 µg/mL |
| KRLWKIRQRIAK-NH2 [GP13] | >2000 µg/mL |
| GNWRKIVHKIKKAG-NH2 [GN12] | >2000 µg/mL |

Return reported MHC (minimal hemolytic concentration) values for all items listed beneath this line.
1. GRIKRIRKIIHKY-NH2 [GP8]
2. IHKLAKLAKNVL-NH2 [GN14]
3. RLRKKWRKLKKLL-NH2 [GN6]
4. KRLWKRIYRLLKK-NH2 [GN9]
5. IDKWKAAFKKIKNLF-NH2 [GN3]
6. IRRIRKKIKKIFKKI-NH2 [GN10]

Response:
1. >2000 µg/mL
2. >2000 µg/mL
3. 2000 µg/mL
4. 250 µg/mL
5. 500 µg/mL
6. >2000 µg/mL

Return reported MHC (minimal hemolytic concentration) values for all items listed beneath this line.
1. AKKVVKKIYKRFQK-NH2 [GP10]
2. AKRIRKLIKKIFKKI-NH2 [GN1]
3. RRWKWRRKIKKWL-NH2 [GN2]
4. LRKFWKKIRKFLKKI-NH2 [GN8]
5. KRIRKWVRRILKKL-NH2 [GN7]

Response:
>2000 µg/mL
>2000 µg/mL
1000 µg/mL
62.5 µg/mL
250 µg/mL

Return reported MHC (minimal hemolytic concentration) values for all items listed beneath this line.
1. ARKKWRKRLKKLKI-NH2 [GP9]
2. ARKWRKFLKKI-NH2 [GP7]
3. LKKLWKRIIKVGR-NH2 [GP6]

Response:
1. >2000 µg/mL
2. >2000 µg/mL
3. >2000 µg/mL
